Kd values, listed per item
biological target: T1, extracellular domain (ECD) of human epidermal growth factor receptor 2 (HER2) (Homo sapiens, UniProt P04626); assay: SPR; BIAcore T200; HER2/ECD immobilised on a CM5 chip by amine coupling to 1000 RU; IgG flowed in PBST (0.05% Tween 20) at 30 uL/min; regeneration 10 mM glycine pH 1.5; global fit to a 1:1 binding model; details: both partners purified
T1 construct: human epidermal growth factor receptor 2 (HER2), extracellular domain; also called HER2/ECD
Please respond with the number in nM and leave the unit unwritten.

Example entries begin here.
Binder	Kd [nM]
GH2-65 IgG (antibody, V domains shown, source: HEK293-F, transient transfection, purified (Protein A, Superdex 200)) VH: EVQLVESGGGLVQPGGSLRLSCAASGFTIDDWGIHWVRQAPGKGLEWVAWIWPYWGYTFYADSVKGRFTISADTSKNTAYLQMNSLRAEDTAVYYCARFLDWNNNWMDYWGQGTLVTVSS VL: DIQMTQSPSSLSASVGDRVTITCRASQDVSGWVAWYQQKPGKAPKLLISSASFLYSGVPSRFSGSGSGTDFTLTISSLQPEDFATYYCQQYYDFPVTFGQGTKVEIK	31.8
GH2-13 IgG (antibody, V domains shown, source: HEK293-F, transient transfection, purified (Protein A, Superdex 200)) VH: EVQLVESGGGLVQPGGSLRLSCAASGFTISDGGIHWVRQAPGKGLEWVAGIWPYWGYTSYADSVKGRFTISADTSKNTAYLQMNSLRAEDTAVYYCARFDNNWVGNMDYWGQGTLVTVSS VL: DIQMTQSPSSLSASVGDRVTITCRASQDVYFGVAWYQQKPGKAPKLLISGTTSLYSGVPSRFSGSGSGTDFTLTISSLQPEDFATYYCQQYGSYPITFGQGTKVEIK	2.64
GH2-60 IgG (antibody, V domains shown, source: HEK293-F, transient transfection, purified (Protein A, Superdex 200)) VH: EVQLVESGGGLVQPGGSLRLSCAASGFTISDFGIHWVRQAPGKGLEWVAGIWPYWGYTYYADSVKGRFTISADTSKNTAYLQMNSLRAEDTAVYYCARFWNIYWNVMDYWGQGTLVTVSS VL: DIQMTQGPSSLSASVGDRVTITCRASQDVGSWVAWYQQKPGKAPKLLISSPPSLYSGVPSRFSGSGSGTDFTLTISSLQPEDFATYYCQQGFDSPITFGQGTKVEIK	1.53
GH2-23 IgG (antibody, V domains shown, source: HEK293-F, transient transfection, purified (Protein A, Superdex 200)) VH: EVQLVESGGGLVQPGGSLRLSCAASGFTINGGGIHWVRQAPGKGLEWVAFIGPFGGSTFYADSVKGRFTISADTSKNTAYLQMNSLRAEDTAVYYCARFFGGNIHVMDYWGQGTLVTVSS VL: DIQMTQSPSSLSASVGDRVTITCRASQDVFWGVAWYQQKPGKAPKLLISWSASLYSGVPSRFSGSGSGTDFTLTISSLQPEDFATYYCQQYFSFPFTFGQGTKVEIK	0.827

Now look at this one.
### Prompt Reported Kd for GH2-3 IgG (antibody, V domains shown, source: HEK293-F, transient transfection, purified (Protein A, Superdex 200)) VH: EVQLVESGGGLVQPGGSLRLSCAASGFTISGGWIHWVRQAPGKGLEWVAGIWPSGGSTSYADSVKGRFTISADTSKNTAYLQMNSLRAEDTAVYYCARFYFGFGDLMDYWGQGTLVTVSS VL: DIQMTQSPSSLSASVGDRVTITCRASQDVNNNVAWYQQKPGKAPKLLIYGARYLYSGVPSRFSGSGSGTDFTLTISSLQPEDFATYYCQQFGGGPLTFGQGTKVEIK : what is it?
### Response 2.07
